As shown below, each of these compounds has a reported EGFP/DsRed ratio value.
ASSAYED_SYSTEM: Cellular tumor antigen p53 (Homo sapiens) (UniProt P04637)
Sequence (P04637 whole entry, looked up): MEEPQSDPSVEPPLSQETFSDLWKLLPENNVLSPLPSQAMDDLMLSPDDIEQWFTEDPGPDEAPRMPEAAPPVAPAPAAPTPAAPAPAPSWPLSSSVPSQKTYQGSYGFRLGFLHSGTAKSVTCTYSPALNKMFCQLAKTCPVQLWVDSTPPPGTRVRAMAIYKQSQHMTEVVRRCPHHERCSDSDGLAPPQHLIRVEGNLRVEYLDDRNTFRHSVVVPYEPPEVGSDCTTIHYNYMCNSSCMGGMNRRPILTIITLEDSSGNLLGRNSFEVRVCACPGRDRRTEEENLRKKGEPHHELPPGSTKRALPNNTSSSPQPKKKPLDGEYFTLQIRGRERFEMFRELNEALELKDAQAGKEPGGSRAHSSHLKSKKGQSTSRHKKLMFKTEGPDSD
PROTOCOL_DETAILS: kinase inhibitors altering GFP-p53 stability in HPV16-positive cells, imaging, known kinase inhibitor set, EGFP/DsRed ratio (AID 1053116);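 further: cells exposed to compounds for 24 h at 37 °C before reading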
DETAILS: stronger effect = higher value
Write the value as a bare number.

- COMPOUND: "COc1cccc(C2=C(c3cn(C)c4ccc(Cl)cc34)C(=O)NC2=O)c1"
  MEASURED_ENDPOINT: "EGFP/DsRed ratio"
  VALUE_MEASURED: 0.277
- COMPOUND: "COc1cccc(-c2c[nH]c3c(N/N=C/c4ccncc4)ncnc23)c1"
  MEASURED_ENDPOINT: "EGFP/DsRed ratio"
  VALUE_MEASURED: 0.121
- COMPOUND: "COc1cccc(C2=C(c3cn(C)c4cc(F)ccc34)C(=O)NC2=O)c1"
  MEASURED_ENDPOINT: "EGFP/DsRed ratio"
  VALUE_MEASURED: 0.327
- COMPOUND: "CCc1nn2ncccc2c1-c1ccnc(NC2CC2)n1"
  MEASURED_ENDPOINT: "EGFP/DsRed ratio"
  VALUE_MEASURED: 0.117
- COMPOUND: "Fc1ccc(-c2ncn(CCCN3CCOCC3)c2-c2ccncc2)cc1"
  MEASURED_ENDPOINT: "EGFP/DsRed ratio"
  VALUE_MEASURED: 0.0405
- COMPOUND: "O=C1Nc2ccc(-c3cccnc3)cc2/C1=C\\c1cc(Br)c(O)c(Br)c1"
  MEASURED_ENDPOINT: "EGFP/DsRed ratio"
  VALUE_MEASURED: 0.0182

Exercise: Need EGFP/DsRed ratio of `COc1cc(F)c(F)c(F)c1C(=O)c1cnc(NC2CCN(S(C)(=O)=O)CC2)nc1N` , thanks.
Solution: 0.21

Exercise: Would you mind doing Cc1cccc(C2NNCC2c2ccc3ncccc3n2)n1 (stereo not given) as well?
Solution: 0.132

Exercise: Would you kindly repeat that for `Cc1ccc2[nH]c(O)c(N=Nc3ccc(S(N)(=O)=O)cc3)c2c1` ?
Solution: 0.439

Exercise: Follow-up entry: `COc1cc(Nc2ncc3c(C)nc(-c4cccc(Oc5ccccc5)c4)n3n2)cc(OC)c1OC`
Solution: 0.0854

----------
// values below are reported viability decrease
PROTOCOL_DETAILS: growth inhibition of GSK3B-pretreated HCT116 cells – cell-based, CellTiter-Glo, 0.2 to 20 µM (AID 1117336)
DETAILS: HCT116 viability after GSK3B inhibitor, at 20 µM, stronger effect = higher value
Numeric only. Scale: %

- COMPOUND: "Cc1ccc2c(n1)Oc1ccc(C(C)C(=O)OCC(=O)N(C)C)cc1C2 (configuration not stated)"
  viability decrease (%): 28.6

Exercise: What viability decrease value was documented for this compound, CCCNCC(O)COc1ccccc1C(=O)CCc1ccccc1 (configuration not stated) ?
Solution: 7.9

Exercise: For `OC[C@H]1O[C@@H]2O[C@H]3[C@H](O)[C@@H](O)[C@@H](O[C@H]4[C@H](O)[C@@H](O)[C@@H](O[C@H]5[C@H](O)[C@@H](O)[C@@H](O[C@H]6[C@H](O)[C@@H](O)[C@@H](O[C@H]7[C@H](O)[C@@H](O)[C@@H](O[C@H]8[C@H](O)[C@@H](O)[C@@H](O[C@H]1[C@H](O)[C@H]2O)O[C@@H]8CO)O[C@@H]7CO)O[C@@H]6CO)O[C@@H]5CO)O[C@@H]4CO)O[C@@H]3CO` then?
Solution: -5.9

----------
PROTOCOL_DETAILS: IRF3 reporter activation in THP-1 macrophages, cell-based, PMA-stimulated THP-1, luminescence (AID 1053176)
DETAILS: PMA-differentiated THP-1, IRF3 reporter luminescence; stronger effect = higher value
The source made the active and inactive calls. No rule for the calls is given here.
Entries and their fraction signal values follow.

Solved cases below.
- COMPOUND: "Nc1c(C(=O)c2cccc(C#CCN3CCCCC3)c2)cnn1-c1ccc(F)cc1"
  fraction signal: "0.0075 (inactive)"
- COMPOUND: "Cc1ccc(C(=O)NC2CC2)cc1-c1ccc2[nH]ncc2c1"
  fraction signal: "0.0035 (inactive)"
- COMPOUND: "Cn1cc(C2=C(Oc3ccccc3)C(=O)NC2=O)c2ccccc21"
  fraction signal: "-0.0005 (inactive)"
- COMPOUND: "Cn1cc(C2=C(c3cn(C)c4c([N+](=O)[O-])cccc34)C(=O)NC2=O)c2ccccc21"
  fraction signal: "-0.005 (inactive)"
- COMPOUND: "c1ccc(Oc2ccc(Nc3ncc(-c4ccccc4)o3)cc2)cc1"
  fraction signal: "0.0065 (inactive)"

Exercise: Form field: reported fraction signal of `Cn1cc(C2=C(c3cn(CCSC(=N)N)c4ccccc34)C(=O)NC2=O)c2ccccc21`
Solution: -0.018 (inactive)

Exercise: And for `O=C(Nc1n[nH]c2nc(-c3ccc(O)cc3)c(Br)cc12)C1CC1` ?
Solution: -0.013 (inactive)

Exercise: Same question for `CS(=O)(=O)CCNCc1ccc(-c2ccc3ncnc(Nc4ccc(OCc5ccccc5)c(C(F)(F)F)c4)c3c2)o1` please.
Solution: -0.0055 (inactive)

----------
PROTOCOL_DETAILS: differential killing of epithelial or mesenchymal cells, primary screen, imaging, PC-3E GFP, TEM4-18 mCherry, co-culture (AID 1345086);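 further: cells exposed to compound for 72 h before imaging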
DETAILS: imaging cell counts, measured here: mesenchymal TEM4-18 mCherry cell survival, at 1 µM
MEASURED_ENDPOINT: normalised cell number
Lab note: jot down the number only; don't add units.

Look over these answered cases.
- MOLECULE: "CN(C)CCC[C@@]1(c2ccc(F)cc2)OCc2cc(C#N)ccc21"
  MEASURED_ENDPOINT: "normalised cell number"
  VALUE_MEASURED: 1.12
- MOLECULE: "O=S(=O)(O)CCS"
  MEASURED_ENDPOINT: "normalised cell number"
  VALUE_MEASURED: 1.09
- MOLECULE: "O=C1N=C(O)CN1/N=C/c1ccc(-c2ccc([N+](=O)[O-])cc2)o1"
  MEASURED_ENDPOINT: "normalised cell number"
  VALUE_MEASURED: 1.1

Exercise: Reported normalised cell number for `Cc1noc(NS(=O)(=O)c2ccc(N)cc2)c1C` : what is it?
Solution: 1.22

Exercise: Now give it for `NS(=O)(=O)c1cc2c(cc1Cl)NC=NS2(=O)=O` too.
Solution: 0.45

----------
ASSAYED_SYSTEM: ATP-dependent translocase ABCB1 (Homo sapiens)
PROTOCOL_DETAILS: MDR1 (ABCB1) efflux transporter inhibition, cell-based (AID 377)
DETAILS: MDR1-expressing cells, fluorescent substrate accumulation slope; stronger effect = higher value; concentration not given here
Inconclusive results are not listed. Activity calls are given as the source filed them. Cut-off read from the data, not from the text of the source: active = fluorescence slope change above about 50%; inconclusive = mostly about 31% to 49%; inactive = weaker than that.
MEASURED_ENDPOINT: fluorescence slope change

Below, 5 compounds whose answers are already recorded.
- COMPOUND: "CC(=O)[C@H]1CC[C@H]2[C@@H]3C[C@H](C)C4=CC(=O)CC[C@]4(C)[C@H]3[C@@H](O)C[C@]12C"
  fluorescence slope change: "55.7% (active)"
- COMPOUND: "CC1=NS(=O)(=O)c2cc(Cl)ccc2N1"
  fluorescence slope change: "82.3% (active)"
- COMPOUND: "O=S(=O)(O)CCS"
  fluorescence slope change: "5.5% (inactive)"
- COMPOUND: "Nc1nc2ncc(CNc3ccc(C(=O)N[C@@H](CCC(=O)O)C(=O)O)cc3)nc2c(=O)[nH]1"
  fluorescence slope change: "5.4% (inactive)"
- COMPOUND: "NS(=O)(=O)c1cc(C2(O)NC(=O)c3ccccc32)ccc1Cl (stereo not drawn)"
  fluorescence slope change: "22.1% (inactive)"

Exercise: Entry under review: CC(C)(C)NCC(O)COc1cccc2c1C[C@H](O)[C@H](O)C2 (stereo partly drawn) . Reported fluorescence slope change?
Solution: 55.3% (active)

Exercise: Ok, now `CO[C@@]1(NC(=O)Cc2cccs2)C(=O)N2C(C(=O)O)=C(COC(N)=O)CS[C@@H]21`
Solution: 94% (active)

Exercise: Now this one: `O=c1n(CCCN2CCN(c3cccc(Cl)c3)CC2)nc2ccccn12`
Solution: 85.5% (active)

Exercise: And the next one, `CC1(C)O[C@@H]2C[C@H]3[C@@H]4C[C@H](F)C5=CC(=O)C=C[C@]5(C)[C@H]4[C@@H](O)C[C@]3(C)[C@]2(C(=O)CO)O1` ?
Solution: 24.8% (inactive)

Exercise: Proceed to `CCCc1cc(=O)[nH]c(=S)[nH]1`
Solution: -6.8% (inactive)

Exercise: Note, next up: OC(CCN1CCCC1)(c1ccccc1)C1CCCCC1 (stereo not drawn)
Solution: 70.5% (active)

Exercise: Another compound: `NNC(=O)c1ccncc1`
Solution: 55.1% (active)

Exercise: # repeat for `O=C1N=C(O)CN1/N=C/c1ccc(-c2ccc([N+](=O)[O-])cc2)o1`
Solution: 54.9% (active)
